Target: PPARG/RXRA LBD heterodimer (Homo sapiens, UniProt P37231)
Construct: His-TEV-Q203-Y477; Uniprot ID P37231-2; made in house; host or cells: E. coli
Assay: PPARγ-MED1 blockade assay (TR-FRET, biotinylated MED1 LxxLL peptide)
Assay type: biochemical
Settings: WT PPARG LBD/WT RXRA LBD, 80 nM Rosiglitazone, 3 hours
Sequence (P37231 231-505): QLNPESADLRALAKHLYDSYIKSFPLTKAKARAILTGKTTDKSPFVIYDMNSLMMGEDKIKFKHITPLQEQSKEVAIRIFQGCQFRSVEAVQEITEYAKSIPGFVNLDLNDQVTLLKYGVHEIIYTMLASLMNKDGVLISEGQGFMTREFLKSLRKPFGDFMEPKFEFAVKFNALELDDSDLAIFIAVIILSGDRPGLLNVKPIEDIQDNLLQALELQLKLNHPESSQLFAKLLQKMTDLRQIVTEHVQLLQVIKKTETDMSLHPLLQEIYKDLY
Sequence (P19793 228-462 partner limits assumed): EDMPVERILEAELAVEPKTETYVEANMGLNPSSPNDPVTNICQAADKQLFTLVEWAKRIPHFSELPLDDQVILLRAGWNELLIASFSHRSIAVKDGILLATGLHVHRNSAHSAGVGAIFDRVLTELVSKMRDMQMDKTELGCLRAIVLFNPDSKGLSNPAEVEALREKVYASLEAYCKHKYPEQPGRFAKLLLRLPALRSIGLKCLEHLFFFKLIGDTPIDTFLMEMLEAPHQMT
pEC50: −log10 of the molar value.
Kindly state pEC50 for each of the entries shown.

Form field: reported pEC50 of CN(C)[C@@H]1CCN(c2c(F)cc3[nH]c(-c4cc(C#N)ccc4Cl)cc(=O)c3c2F)C1
5.00 to 6.00

Need pEC50 of CN1CCN(c2c(F)cc3[nH]c(-c4cc(C#N)ccc4Cl)cc(=O)c3c2F)CC1 , thanks.
5.00 to 6.00

Need pEC50, item CN(C)C(=O)c1cc(-c2c(F)cc3[nH]c(-c4cc(C#N)ccc4Cl)cc(=O)c3c2F)ccn1
< 5.00

Fill in the blank: the reported pEC50 of CNC(=O)Cc1ccc(-c2c(F)cc3[nH]c(-c4cc(C#N)ccc4Cl)cc(=O)c3c2F)cc1 is ____.
6.00 to 7.00

Form field: reported pEC50 of N#Cc1ccc(Cl)c(-c2cc(=O)c3c(F)cc(C(F)(F)F)cc3[nH]2)c1
6.00 to 7.00

Data request, read-out pEC50, for N#Cc1ccc(Cl)c(-c2cc(=O)c3c(F)c(-c4ccn(CC(O)CO)n4)c(F)cc3[nH]2)c1 (centres unmarked)
6.00 to 7.00

Looking for the measured pEC50 of N#Cc1ccc(Cl)c(-c2cc(=O)c3c(F)c(-c4ccc(C(F)(F)F)cn4)c(F)cc3[nH]2)c1 , can you help?
6.00 to 7.00

Name the reported pEC50 value associated with the compound CNC(=O)c1cccc(-c2c(F)cc3[nH]c(-c4cc(C#N)ccc4Cl)cc(=O)c3c2F)c1
6.00 to 7.00

----------
Molecular target: PPARG/RXRA LBD heterodimer (Homo sapiens, UniProt P37231)
Construct: His-TEV-Q203-Y477; Uniprot ID P37231-2; made in house; host or cells: E. coli
Experiment: PPARγ-NCOR1 recruitment assay (TR-FRET, biotinylated NCOR1 ID2 peptide)
Assay type: biochemical
Details: 80 nM Rosiglitazone, 3 hours, read-out: PPARG-NCOR recruitment assay EC50
Sequence (P37231 231-505): as the sequence (P37231 231-505) above
Sequence (P19793 228-462 partner): as the sequence (P19793 228-462 partner limits assumed) above
Sequence (O75376 2251-2273 partner): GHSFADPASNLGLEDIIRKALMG
pEC50: −log10 of the molar value.
measurementLabel: pEC50

I would be grateful if you could share the reported pEC50 for CNC(=O)c1ccc(-c2c(F)cc3[nH]c(-c4cc(C#N)ccc4Cl)cc(=O)c3c2F)cc1 .
6.00 to 7.00

Any idea what its pEC50 is? The molecule is N#Cc1ccc(Cl)c(-c2cc(=O)c3c(F)c(-c4cnc(C(F)(F)F)nc4)c(F)cc3[nH]2)c1
6.00 to 7.00

What does the data say about its pEC50? Entry: CN(C)CCn1cc(-c2c(F)cc3[nH]c(-c4cc(C#N)ccc4Cl)cc(=O)c3c2F)cn1
5.00 to 6.00

I'd like to know its pEC50. The molecule in question is N#Cc1ccc(Cl)c(-c2cc(=O)c3cc(F)cc(F)c3[nH]2)c1
< 5.00

Which pEC50 is listed for N#Cc1ccc(Cl)c(-c2cc(=O)c3c(F)c(-c4ccnc(CO)c4)c(F)cc3[nH]2)c1 ?
5.00 to 6.00

I would be grateful if you could share the reported pEC50 for N#Cc1ccc(Cl)c(-c2cc(=O)c3c(F)c(-c4ccnc(C(F)F)c4)c(F)cc3[nH]2)c1 .
6.00 to 7.00

Please give the measured pEC50 for this molecule: N#Cc1ccc(Cl)c(-c2cc(=O)c3cc(C#N)c(C(F)(F)F)cc3[nH]2)c1
< 5.00

Consider the molecule shown here: Cc1nc(-c2c(F)cc3[nH]c(-c4cc(C#N)ccc4Cl)cc(=O)c3c2F)c[nH]1 What is its recorded pEC50?
6.00 to 7.00

Report pEC50 for N#Cc1ccc(Cl)c(-c2cc(=O)c3c(F)c(C4CCNCC4)c(F)cc3[nH]2)c1 please.
5.00 to 6.00

Can you look up the measured pEC50 of Cc1cnc(-c2c(F)cc3[nH]c(-c4cc(C#N)ccc4Cl)cc(=O)c3c2F)cn1 for me?
6.00 to 7.00

What measured pEC50 goes with N#Cc1ccc(Cl)c(-c2cc(=O)c3c(F)c(-c4ccc(C(F)(F)F)nc4)c(F)cc3[nH]2)c1 ?
6.00 to 7.00

Quick one: pEC50 of CN1CCN(c2c(F)cc3[nH]c(-c4cc(C#N)ccc4Cl)cc(=O)c3c2F)CC1=O ?
5.00 to 6.00

Dear colleague, I am looking for the recorded pEC50 of the following molecule: CN1CCN(c2cc3c(=O)cc(-c4cc(C#N)ccc4Cl)[nH]c3cc2Cl)CC1
5.00 to 6.00

Look up pEC50: CN(C)C(=O)[C@@H]1CCCN(c2c(F)cc3[nH]c(-c4cc(C#N)ccc4Cl)cc(=O)c3c2F)C1
6.00 to 7.00

// lookup pEC50 for N#Cc1ccc(Cl)c(-c2cc(=O)c3c(F)c(-c4nccc(=O)[nH]4)c(F)cc3[nH]2)c1
5.00 to 6.00

Sample O=c1cc(-c2cc([N+](=O)[O-])ccc2Cl)[nH]c2ccccc12 — what was its pEC50?
> 8.00

The origin of these recorded values is patent US20240166624A1.
